tested on: HGC-27; experiment: Cytotoxicity against human HGC27 cells assessed as reduction in cell viability after 48 hrs by MTT assay; assay type: functional, cell-based; details: HGC-27, 48 h
observable: pIC50
Numbers only, as −log10 of the molar value.

Problem: Give pIC50 for the following compound: "COc1cc(-c2nc(Cn3cc(CN4C(=O)c5ccc(C)cc5C4=O)nn3)cc3c2[nH]c2ccccc23)cc(OC)c1OC"
Solution: 5.26
